# tgt: Tyk2 (Homo sapiens (Human))
# Sequence (P29597 whole entry): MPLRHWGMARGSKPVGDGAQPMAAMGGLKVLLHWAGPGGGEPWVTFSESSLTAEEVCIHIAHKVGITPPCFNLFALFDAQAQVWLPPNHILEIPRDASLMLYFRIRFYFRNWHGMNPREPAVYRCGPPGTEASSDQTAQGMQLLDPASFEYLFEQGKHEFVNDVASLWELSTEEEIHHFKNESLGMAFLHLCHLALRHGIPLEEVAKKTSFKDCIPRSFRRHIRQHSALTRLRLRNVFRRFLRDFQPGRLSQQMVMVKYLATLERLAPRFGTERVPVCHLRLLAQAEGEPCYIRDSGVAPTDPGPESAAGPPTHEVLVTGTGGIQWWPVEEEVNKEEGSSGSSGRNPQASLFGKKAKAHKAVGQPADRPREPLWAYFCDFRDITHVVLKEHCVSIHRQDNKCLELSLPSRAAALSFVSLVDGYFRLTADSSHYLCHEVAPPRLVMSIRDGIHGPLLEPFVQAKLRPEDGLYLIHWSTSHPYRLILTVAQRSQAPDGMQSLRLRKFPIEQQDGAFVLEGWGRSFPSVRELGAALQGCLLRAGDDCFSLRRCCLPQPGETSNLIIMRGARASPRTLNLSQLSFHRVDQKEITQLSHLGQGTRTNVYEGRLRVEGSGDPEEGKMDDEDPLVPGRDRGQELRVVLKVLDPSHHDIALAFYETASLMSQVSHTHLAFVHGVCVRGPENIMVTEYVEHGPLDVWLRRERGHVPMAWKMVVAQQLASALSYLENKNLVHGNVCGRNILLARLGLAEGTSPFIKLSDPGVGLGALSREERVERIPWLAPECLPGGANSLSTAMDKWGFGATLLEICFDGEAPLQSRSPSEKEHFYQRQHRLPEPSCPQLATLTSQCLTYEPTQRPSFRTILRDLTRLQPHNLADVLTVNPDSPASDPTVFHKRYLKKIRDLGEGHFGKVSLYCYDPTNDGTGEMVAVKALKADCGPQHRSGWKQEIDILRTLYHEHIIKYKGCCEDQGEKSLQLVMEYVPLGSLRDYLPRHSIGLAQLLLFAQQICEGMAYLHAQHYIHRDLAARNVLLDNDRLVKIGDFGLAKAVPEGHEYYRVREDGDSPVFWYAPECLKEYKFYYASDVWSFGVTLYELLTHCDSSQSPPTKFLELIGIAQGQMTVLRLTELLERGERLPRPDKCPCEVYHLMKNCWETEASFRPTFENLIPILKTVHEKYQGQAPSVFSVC
# test summary: pSTAT4 Cell Assay (MSD, NK92 cells)
# Type: cell-based
measurement kind: IC50

[[record]]
molecule = "COc1ccc(-c2cnc(NC(C)=O)cc2Nc2cc(C)nc(C34COC(C3)C4)n2)nn1"
recorded_result = "10 to 100 nM"

[[record]]
molecule = "COCc1cnc(-c2cnc(NC(C)=O)cc2Nc2cc(C)nc(C(C)(F)F)n2)cn1"
recorded_result = "≤ 10 nM"

[[record]]
molecule = "CC(=O)Nc1cc(Nc2cc(C)nc(C(C)(F)F)n2)c(-c2cnn(C)c2)cn1"
recorded_result = "≥ 1000 nM"

[[record]]
molecule = "CC(=O)Nc1cc(Nc2ccnc(C(C)(F)F)n2)c(-c2ccnc(C(F)F)n2)cn1"
recorded_result = "≤ 10 nM"

[[record]]
molecule = "COCCN(C)Cc1ccc(-c2cnc(NC(C)=O)cc2Nc2ccnc(C(C)(F)F)n2)nc1"
recorded_result = "≤ 10 nM"


Record IC50 for all entries; do not skip any.
1. CC(=O)Nc1cc(Nc2ccnc(C(C)(F)F)n2)c(-c2ccc(OC(F)F)cn2)cn1
2. CCc1cc(Nc2cc(NC(C)=O)ncc2-c2cnc(N3CCOCC3)cn2)nc(C(C)(F)F)n1
3. CCc1cc(Nc2cc(NC(C)=O)ncc2-c2ncc(C3COCCO3)cn2)nc(C(C)(F)F)n1 (centres unmarked)

result:
["≤ 10 nM", "10 to 100 nM", "≤ 10 nM"]

* * *

# tgt: Tyk2 (Homo sapiens (Human))
# test summary: pSTAT4 Cell Assay (MSD, NK92 cells)
# Type: cell-based
# particulars: MSD
Exercise: for every item that follows, state its recorded IC50.

A selection of reference data follows.
[[record]]
compound = "CC(=O)Nc1cc(Nc2cc(C)nc(C(C)(F)F)n2)c(-c2ncc(F)c(C)n2)cn1 [Example 673]"
recorded_result = "10 to 100 nM"

[[record]]
compound = "CCOc1cnc(NC(C)=O)cc1Nc1cc(-c2cnn(C3CCC3)c2)nc(C(C)(F)F)n1 [Example 312]"
recorded_result = "≤ 10 nM"

[[record]]
compound = "CCOc1cnc(NC(C)=O)cc1Nc1nc(C(C)(F)F)ncc1F [Example 34]"
recorded_result = "≥ 1000 nM"

[[record]]
compound = "CC(=O)Nc1cc(Nc2cc(C)nc(C(C)(F)F)n2)c(-c2nccc(C3CC3)n2)cn1 [Example 666]"
recorded_result = "100 to 1000 nM"

[[record]]
compound = "CC(=O)Nc1cc(Nc2cc(OC3CC3)nc(C(C)(F)F)n2)c(OCC2COCCO2)cn1 (centres unmarked) [Example 445]"
recorded_result = "≤ 10 nM"

[[record]]
compound = "CNC(=O)Nc1cc(Nc2cc(C)nc(C(C)(F)F)n2)c(-c2ccc(C#N)cn2)cn1 [Example 520]"
recorded_result = "≤ 10 nM"


Record IC50 for all entries; do not skip any.
1. CC(=O)Nc1cc(Nc2ccnc(C(C)(F)F)n2)c(-c2cncc(OC3COC3)n2)cn1 [Example 690]
2. CC(=O)Nc1cc(Nc2cc(C)nc(C(C)(F)F)n2)c(-c2cc(CN(C)C)n(C)n2)cn1 [Example 287]

result:
1: 10 to 100 nM; 2: ≤ 10 nM

* * *

Exercise: for every item that follows, state its recorded pIC50.
# tgt: JH2 domain of human Tyk2 (Homo sapiens (Human), UniProt P29597)
# Sequence (P29597 575-876): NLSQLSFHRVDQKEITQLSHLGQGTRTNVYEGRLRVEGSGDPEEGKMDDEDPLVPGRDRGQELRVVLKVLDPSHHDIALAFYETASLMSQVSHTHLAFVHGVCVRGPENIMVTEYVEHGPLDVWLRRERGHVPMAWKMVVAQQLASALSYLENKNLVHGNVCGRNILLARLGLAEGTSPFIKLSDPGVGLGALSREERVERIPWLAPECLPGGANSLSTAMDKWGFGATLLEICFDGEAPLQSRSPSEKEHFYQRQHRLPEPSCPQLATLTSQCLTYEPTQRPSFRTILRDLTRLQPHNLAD
# test summary: JH2 Biochemical Assay (TR-FRET probe displacement)
# Type: binding
# particulars: JH2 domain of human Tyk2, TR-FRET probe displacement
pIC50: −log10 of the molar value.

A selection of reference data follows.
[[record]]
molecule = "CC(=O)Nc1cc(Nc2cc(C)nc(C(C)(F)F)n2)c(-c2cccc(F)n2)cn1 [Example 623]"
tgt = "JH2 domain of human Tyk2 (Homo sapiens (Human), UniProt P29597)"
measurement_kind = "pIC50"
recorded_result = "≥ 8.00"

[[record]]
molecule = "CC(=O)Nc1cc(Nc2cncc(C(C)(C)F)c2)c(-c2ccc(C(C)(C)O)cn2)cn1 [Example 722]"
tgt = "JH2 domain of human Tyk2 (Homo sapiens (Human), UniProt P29597)"
measurement_kind = "pIC50"
recorded_result = "≥ 8.00"

[[record]]
molecule = "CCOCCOc1cnc(NC(C)=O)cc1Nc1cc(C)nc(C(C)(F)F)n1 [Example 507]"
tgt = "JH2 domain of human Tyk2 (Homo sapiens (Human), UniProt P29597)"
measurement_kind = "pIC50"
recorded_result = "≥ 8.00"

[[record]]
molecule = "COc1cnc(NC(C)=O)cc1Nc1cc(-c2cc(F)c3nc(C)cn3c2)nc(C(C)(F)F)n1 [Example 398]"
tgt = "JH2 domain of human Tyk2 (Homo sapiens (Human), UniProt P29597)"
measurement_kind = "pIC50"
recorded_result = "≥ 8.00"

[[record]]
molecule = "CCOc1cnc(NC(C)=O)cc1Nc1cc(OC2CC(C)C2)nc(C(C)(F)F)n1 (centres unmarked) [Example 464]"
tgt = "JH2 domain of human Tyk2 (Homo sapiens (Human), UniProt P29597)"
measurement_kind = "pIC50"
recorded_result = "≥ 8.00"

[[record]]
molecule = "CO[C@H]1C[C@@H](Oc2cnc(NC(C)=O)cc2Nc2cc(C(C)C)nc(C(C)(F)F)n2)C1 [Example 409]"
tgt = "JH2 domain of human Tyk2 (Homo sapiens (Human), UniProt P29597)"
measurement_kind = "pIC50"
recorded_result = "≥ 8.00"


Record pIC50 for all entries; do not skip any.
1. CCCn1ccc(-c2cnc(NC(C)=O)cc2Nc2cc(C)nc(C(C)(F)F)n2)n1 [Example 615]
2. CCOc1cnc(NC(C)=O)cc1Nc1cc(O[C@H]2C[C@H](OC)C2)nc(C)n1 [Example 519]
3. CC(=O)Nc1cc(Nc2cc(C)nc(C(C)(F)F)n2)c(OCc2cncc(F)c2)cn1 [Example 474]

result:
≥ 8.00
6.00 to 7.00
≥ 8.00

Record pIC50 for all entries; do not skip any.
1. CCc1cc(Nc2cc(NC(C)=O)ncc2-c2ncccn2)nc(C(C)(F)F)n1 [Example 719]
2. CC(=O)Nc1cc(Nc2cc(C)nc(C(C)(F)F)n2)c(OC[C@H]2CCC(=O)N2)cn1 [Example 502]
3. COc1cnc(NC(C)=O)cc1Nc1cc(-c2cc(C)c3nc(C)cn3c2)nc(C(C)(F)F)n1 [Example 403]

result:
["≥ 8.00", "≥ 8.00", "≥ 8.00"]
